target: UniProt P08047; test: Inhibition of human SP1 transfected in PC-3 cells by renilla luciferase reporter gene assay
Sequence (P08047 whole entry): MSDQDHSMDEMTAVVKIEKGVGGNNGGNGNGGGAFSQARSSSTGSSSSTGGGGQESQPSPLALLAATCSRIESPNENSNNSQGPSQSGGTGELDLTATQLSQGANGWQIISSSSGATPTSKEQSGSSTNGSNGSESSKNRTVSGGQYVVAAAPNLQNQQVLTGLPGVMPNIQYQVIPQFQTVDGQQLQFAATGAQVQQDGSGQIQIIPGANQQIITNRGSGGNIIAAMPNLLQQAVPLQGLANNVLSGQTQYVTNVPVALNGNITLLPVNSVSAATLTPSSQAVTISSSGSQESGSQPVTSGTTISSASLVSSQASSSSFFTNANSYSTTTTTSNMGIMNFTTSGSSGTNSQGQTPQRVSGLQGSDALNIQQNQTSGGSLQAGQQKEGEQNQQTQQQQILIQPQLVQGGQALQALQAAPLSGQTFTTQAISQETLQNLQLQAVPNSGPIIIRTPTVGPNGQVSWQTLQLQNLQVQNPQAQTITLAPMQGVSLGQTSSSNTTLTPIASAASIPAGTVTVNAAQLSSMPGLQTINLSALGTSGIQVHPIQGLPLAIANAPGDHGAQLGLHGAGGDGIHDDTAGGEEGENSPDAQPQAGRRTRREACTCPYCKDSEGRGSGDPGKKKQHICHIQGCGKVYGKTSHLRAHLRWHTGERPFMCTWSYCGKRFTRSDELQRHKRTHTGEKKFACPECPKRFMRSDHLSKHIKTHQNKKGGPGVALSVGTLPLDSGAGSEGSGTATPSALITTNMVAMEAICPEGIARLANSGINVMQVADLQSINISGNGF
VALUE KIND: pIC50
// pIC50 here means minus log10 of the molar concentration (mol/L)

Exercise: Please report the recorded pIC50 for COCC[n+]1c2c(n(Cc3cnccn3)c1C)C(=O)c1ccccc1C2=O [Sepantronium Bromide] .
Solution: 8.10
